TARGET UNDER TEST: Skeletal Myofibril ATPase (Rabbit Psoas myofibrils)
MEASUREMENT NOTES: Skeletal Myofibril ATPase Assay
CONDITION DESCRIPTION: PK/LDH-coupled NADH absorbance at 340 nm
PARAMETER MEASURED: IC50

                                    compound  readout_value
 0  O=C(Cn1nc(-c2cccs2)ccc1=O)Nc1ccc(Cl)cc1Cl       > 100 µM
 1     Cc1noc(-c2ccc(=O)n(Cc3ccc(F)cc3)n2)n1   10 to 100 µM
 2  O=c1ccc(-c2nc(-c3cncc(Cl)c3)no2)nn1Cc1cncc(F)c1        ≤ 10 µM
 3  CCNC(=O)Cn1nc(-c2nc(-c3cccc(Cl)c3)co2)ccc1=O        ≤ 10 µM
 4       O=C(Cn1nc(-c2cccs2)ccc1=O)Nc1ccccc1       > 100 µM
 5  CCNC(=O)Cn1nc(-c2nnc(-c3cccc(Cl)c3)s2)ccc1=O        ≤ 10 µM
 6  CCNC(=O)Cn1nc(-c2nc(-c3cccc(F)c3)no2)ccc1=O        ≤ 10 µM
 7  CCCNC(=O)Cn1nc(-c2nc(-c3ccc(Cl)cc3)no2)ccc1=O        ≤ 10 µM
 8  CCNC(=O)Cn1nc(-c2nc(-c3ccc(F)c(F)c3)no2)ccc1=O        ≤ 10 µM
 9     Cc1noc(-c2ccc(=O)n(Cc3cccc(F)c3)n2)n1   10 to 100 µM
10  CCNC(=O)Cn1nc(-c2nc(-c3cccnc3)no2)ccc1=O   10 to 100 µM
11  CCNC(=O)Cn1nc(-c2nnc(-c3cncc(C(F)(F)F)c3)s2)ccc1=O        ≤ 10 µM
12     O=C(Cn1nc(-c2ccco2)ccc1=O)NCc1ccccc1F       > 100 µM

---

TARGET UNDER TEST: Skeletal Myofibril ATPase (Rabbit Psoas myofibrils)
MEASUREMENT NOTES: Skeletal Myofibril ATPase Assay
CONDITION DESCRIPTION: PK/LDH-coupled NADH absorbance at 340 nm
pIC50: −log10 of the molar value.
Each record here notes measured pIC50.
PARAMETER MEASURED: pIC50

>>> print(df.to_string())
                                    compound  parameter_measured  readout_value
 0  O=c1ccc(-c2nc(-c3cccc(Cl)c3)no2)cn1Cc1cncc(F)c1 [Compound 86]               pIC50         ≥ 5.00
 1  CCNC(=O)Cn1nc(-c2nnc(C34CC(C3)C4)s2)ccc1=O [Compound 32]               pIC50         ≥ 5.00
 2  Cc1cccc(-c2noc(-c3ccc(=O)n(Cc4ccc(C(F)(F)F)nc4)c3)n2)c1 [Compound 114]               pIC50         < 3.92
 3  O=c1ccc(-c2nc(-c3ccccc3F)no2)cn1Cc1cccnc1 [Compound 111]               pIC50         < 3.92
 4  Cc1cccc(-c2noc(-c3ccc(=O)n(Cc4cccnc4)c3)n2)c1 [Compound 84]               pIC50         ≥ 5.00
 5  Cc1cccc(-c2noc(-c3ccc(=O)n(Cc4cccnc4)c3)n2)c1 [Compound 109]               pIC50   4.00 to 5.00
 6  O=c1ccc(-c2nc(-c3ccc(F)c(F)c3)no2)cn1Cc1cccnc1 [Compound 97]               pIC50         ≥ 5.00
 7  CCNC(=O)Cn1nc(-c2ncc(-c3cccc(Cl)c3)s2)ccc1=O [Compound 25]               pIC50         ≥ 5.00
 8  COc1ccc(NC(=O)Cn2nc(-c3ccco3)ccc2=O)c(OC)c1 [Compound 52]               pIC50   4.00 to 5.00
 9  COc1ccccc1NC(=O)Cn1nc(-c2cccs2)ccc1=O [Compound 40]               pIC50   4.00 to 5.00
10  CCNC(=O)Cn1nc(-c2nc(-c3cccc(Cl)c3)cs2)ccc1=O [Compound 81]               pIC50         < 4.00
11  O=C(Cn1nc(-c2cccs2)ccc1=O)Nc1ccc2c(c1)OCO2 [Compound 47]               pIC50         < 4.00
12  O=c1ccc(-c2cccs2)nn1Cc1cccc(Cl)c1 [Compound 56]               pIC50         ≥ 5.00
13  O=C(Cn1nc(-c2nnc(-c3ccccn3)s2)ccc1=O)NC1CCC1 [Compound 22]               pIC50         ≥ 5.00
14  O=c1ccc(-c2nc(-c3ccccc3Cl)no2)cn1Cc1noc(C2CC2)n1 [Compound 113]               pIC50         < 3.92
15  O=c1ccc(-c2nc(-c3ccc(Cl)cc3)no2)cn1Cc1ccc(Cl)c(Cl)c1 [Compound 124]               pIC50         < 3.92
16  Cc1cccc(-c2noc(-c3ccc(=O)n(Cc4ccc(C)nc4)c3)n2)c1 [Compound 96]               pIC50         ≥ 5.00
17  O=c1ccc(-c2cccs2)nn1Cc1ccccc1F [Compound 58]               pIC50         < 4.00
18  O=c1ccc(-c2nc(-c3cccc(Cl)c3)no2)cn1Cc1cncnc1 [Compound 85]               pIC50         ≥ 5.00
19  Cc1cccc(-c2noc(-c3ccc(=O)n(Cc4ccc(OC(F)F)nc4)c3)n2)c1 [Compound 93]               pIC50         ≥ 5.00
20  Cn1ccc2c(NC(=O)Cn3nc(-c4cccs4)ccc3=O)cccc21 [Compound 83]               pIC50         ≥ 5.00
21  O=C(Cn1nc(-c2nc(-c3cccc(Cl)c3)no2)ccc1=O)NC1CCC1 [Compound 5]               pIC50         ≥ 5.00
22  CCNC(=O)Cn1nc(-c2nc(-c3ccccc3)no2)ccc1=O [Compound 16]               pIC50         ≥ 5.00

Data credit: patent US12643892B2
